# measurement-protocol: Half life in Beagle dog at 3 mg/kg, iv and 10 mg/kg, po
# Type: ADME, organism-based, Canis lupus familiaris
# conditions: in vivo
property-label: half-life (min)
Express it in min; write the number only.

QUERY: Please report the recorded half-life for `CCN(CC)c1ncc(-c2c(C)noc2C)c(N[C@@H](Cc2ccc(OC(=O)N(C)C)cc2)C(=O)O)n1` .
RESULT: 54
